# assay.name: Cytotoxicity against human LI90 cells assessed as reduction in cell viability by MTT assay
# Format: toxicity, cell-based
readout.type: CC50 (µM)
Only the number, expressed in µM, is required.

Task item: For the compound "O=C(NC(=S)Nc1ccc(Br)cn1)c1ccc(C(F)(F)F)cc1" , what CC50 is on record?
Reply: 62.1

====

# assay.name: Cytotoxicity against human HepG2 cells assessed as reduction in cell viability incubated for 7 days by MTT assay
# Format: toxicity, cell-based
# recorded.conditions: time 7 day
readout.type: CC50 at 168 h

Task item: For the molecule "O=C(NC(=S)Nc1ccc(F)cn1)c1ccc(Cl)cc1" , what CC50 at 168 h is on record?
Reply: > 100 µM

Task item: Lookup "O=C(NC(=S)Nc1ccc(Br)cn1)c1ccc(Cl)cc1"
Reply: > 100 µM

Task item: Lookup "O=C(NC(=S)Nc1ccc(C(F)(F)F)cn1)c1ccc(I)cc1"
Reply: > 100 µM

Task item: Lookup "O=C(NC(=S)Nc1ccc(C(F)(F)F)cn1)c1ccc(Br)cc1"
Reply: > 100 µM

Task item: Lookup "O=C(NC(=S)Nc1cc2ccccc2cn1)c1ccc(Cl)cc1"
Reply: 79.1 µM

Task item: Lookup "O=C(NC(=S)Nc1ccc(C(F)(F)F)cn1)c1ccc(Cl)cc1"
Reply: > 100 µM

Task item: Lookup "O=C(NC(=S)Nc1ccc(C(F)(F)F)cn1)c1ccc([N+](=O)[O-])cc1"
Reply: > 100 µM

Task item: Lookup "Cc1ccc(NC(=S)NC(=O)c2ccc(Cl)cc2)nc1"
Reply: 43.8 µM

Task item: Lookup "O=C(NC(=S)Nc1ccc(C(F)(F)F)cn1)c1ccc(C(F)(F)F)cc1"
Reply: > 100 µM

Task item: Lookup "O=C(NC(=S)Nc1ccc(Br)cn1)c1ccc(C(F)(F)F)cc1"
Reply: > 100 µM

Task item: Lookup "O=C(NC(=S)Nc1ccc(C(F)(F)F)cn1)c1ccc(F)cc1"
Reply: 42.2 µM
